target: PCNA (UniProt P12004 1-261); test: SPR
Sequence (P12004 whole entry): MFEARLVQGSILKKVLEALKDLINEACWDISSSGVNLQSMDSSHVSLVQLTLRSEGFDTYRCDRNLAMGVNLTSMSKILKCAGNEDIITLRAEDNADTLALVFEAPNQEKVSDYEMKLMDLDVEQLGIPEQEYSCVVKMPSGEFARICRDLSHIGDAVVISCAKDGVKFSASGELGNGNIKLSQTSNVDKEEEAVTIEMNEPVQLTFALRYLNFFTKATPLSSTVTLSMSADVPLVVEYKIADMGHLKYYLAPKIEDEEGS
pKd: −log10 of the molar value.
readout: pKd

Quick one: pKd of CKRPRPEGMQTLESFFKPLTH [η694-713FF] ?
~6.40
